# measurement-protocol: recombinant UMI read abundance after kanamycin selection (control-corrected) (log10(CPM+1)); higher = more efficient recombination; extreme values may be limits of the assay; sequences stand for … in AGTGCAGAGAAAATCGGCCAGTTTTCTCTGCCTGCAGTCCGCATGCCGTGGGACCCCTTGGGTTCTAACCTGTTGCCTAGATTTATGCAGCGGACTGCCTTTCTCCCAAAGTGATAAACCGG…AGGTTGGTTTCACT; site = the 11-nt donor
measurement-name: recombinant UMI read abundance (log10)

chain | reading
AGCTCATCATGGACCGGTTTTCCCGGTAATCCGTATTTGGG (site AGCTCACCTCC) | 0.0192
AGTACTACATGGACCGGTTTTCCCGGTAATCCGTATTTGAC (site AGGACTACTGT) | 1.71
CTAATAACATGGACCGGTTTTCCCGGTAATCCGTATTTGAT (site CTAATAACTAT) | 2.54
GACCGAGCATGGACCGGTTTTCCCGGTAATCCGTATTTGTA (site GACCGAGCTTA) | 1.19
CGGAATCCATGGACCGGTTTTCCCGGTAATCCGTATTTGTT (site CGCAACCCTAA) | 0.00816
CACGCAGCATGGACCGGTTTTCCCGGTAATCCGTATTTGCT (site CATGCAGCTAG) | 0
GCGGTAACATGGACCGGTTTTCCCGGTAATCCGTATTTGAT (site GCGGTAACTAT) | 2.46
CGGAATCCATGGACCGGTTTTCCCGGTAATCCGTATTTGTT (site CGGAATCCTTG) | 0
GGGCATGCATGGACCGGTTTTCCCGGTAATCCGTATTTGGT (site GAGCATGCTAC) | 0.336
CGGCGTTCATGGACCGGTTTTCCCGGTAATCCGTATTTGAC (site CGGCGTTCTGT) | 1.69
CGTTTGGCATGGACCGGTTTTCCCGGTAATCCGTATTTGCT (site CGTTTGGCTCG) | 0.00605
GTAGGTGCATGGACCGGTTTTCCCGGTAATCCGTATTTGAC (site GTAGGTTCTGT) | 1.1
CGTATGGCATGGACCGGTTTTCCCGGTAATCCGTATTTGCT (site CGTATGGCTAG) | 0.895
GGAGGACCATGGACCGGTTTTCCCGGTAATCCGTATTTGGG (site AGAGGACCTCC) | 0
TAGAGAACATGGACCGGTTTTCCCGGTAATCCGTATTTGAG (site TAGAGAACTCT) | 1.87
CTGTGACCATGGACCGGTTTTCCCGGTAATCCGTATTTGTA (site CTGTGACCTTA) | 0.00405
GGTCCAACATGGACCGGTTTTCCCGGTAATCCGTATTTGTA (site GGTCCAACTTC) | 0.0212
CGGGAGTCATGGACCGGTTTTCCCGGTAATCCGTATTTGCC (site CGCGAGTCTGG) | 1.69

###

# measurement-protocol: recombinant UMI read abundance after kanamycin selection (control-corrected) (log10(CPM+1)); higher = more efficient recombination; extreme values may be limits of the assay; sequences stand for … in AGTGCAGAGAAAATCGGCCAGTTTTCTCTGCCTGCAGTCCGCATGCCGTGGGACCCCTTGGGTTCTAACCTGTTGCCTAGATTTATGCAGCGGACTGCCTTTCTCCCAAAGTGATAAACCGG…AGGTTGGTTTCACT; site = the 11-nt donor
measurement-name: recombinant UMI read abundance (log10)

chain | reading
GGAGTGGCATGGACCGGTTTTCCCGGTAATCCGTATTTGTT (site GGAGTGGCTAT) | 0.767
ACTACAACATGGACCGGTTTTCCCGGTAATCCGTATTTGAG (site ACTACAACTCT) | 1.22
CCCCTCTCATGGACCGGTTTTCCCGGTAATCCGTATTTGGG (site CCCGTCTCTCC) | 0.00587
CCTAAAGCATGGACCGGTTTTCCCGGTAATCCGTATTTGCT (site CCTAAAGCTAC) | 0
CGTGGAACATGGACCGGTTTTCCCGGTAATCCGTATTTGTC (site CGTGGAACTCA) | 0.0117
GTTAGAACATGGACCGGTTTTCCCGGTAATCCGTATTTGGC (site GTTAGCACTGC) | 0.506
ACTCCAGCATGGACCGGTTTTCCCGGTAATCCGTATTTGAT (site ACTCCAGCTAT) | 2.13
CAAGCGCCATGGACCGGTTTTCCCGGTAATCCGTATTTGTG (site CAGGCGCCTCA) | 0.0473
GCCACGCCATGGACCGGTTTTCCCGGTAATCCGTATTTGCA (site GCCACGCCTTT) | 0.0202
CGCCGTACATGGACCGGTTTTCCCGGTAATCCGTATTTGCT (site CGCCGTACTAT) | 0.0196
AGAGGACCATGGACCGGTTTTCCCGGTAATCCGTATTTGGG (site GGAGGACCTCC) | 0.0142
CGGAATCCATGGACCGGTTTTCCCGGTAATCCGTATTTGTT (site CGCAATGCTAA) | 0.00802
GCTACTGCATGGACCGGTTTTCCCGGTAATCCGTATTTGCC (site GCTACTCCTGG) | 0
GATTGTACATGGACCGGTTTTCCCGGTAATCCGTATTTGCG (site GATTGTACTCG) | 0.619
TCTTCGGCATGGACCGGTTTTCCCGGTAATCCGTATTTGGC (site TCTTCGGCTGC) | 0
AAACGAACATGGACCGGTTTTCCCGGTAATCCGTATTTGTC (site AAACGAACTGA) | 1.58
GATCCAACATGGACCGGTTTTCCCGGTAATCCGTATTTGTA (site GATCCAACTTA) | 0.0155
ACTAGAACATGGACCGGTTTTCCCGGTAATCCGTATTTGAC (site ACTAGAACTCT) | 0.0218
GGAGAGGCATGGACCGGTTTTCCCGGTAATCCGTATTTGGT (site GGAGGGGCTAC) | 0.0239
AGACAGGCATGGACCGGTTTTCCCGGTAATCCGTATTTGCT (site AGACAGGCTAG) | 2.44
CAAGTAGCATGGACCGGTTTTCCCGGTAATCCGTATTTGCT (site CAAGCAGCTAG) | 0.378
CGTTTGGCATGGACCGGTTTTCCCGGTAATCCGTATTTGCG (site CGTTTGGCTCG) | 0.142
TAGATTACATGGACCGGTTTTCCCGGTAATCCGTATTTGCA (site TAGAGTACTTG) | 0.616
CAAGTGCCATGGACCGGTTTTCCCGGTAATCCGTATTTGTG (site CAAGTGCCTCA) | 0.662
GGGAAAACATGGACCGGTTTTCCCGGTAATCCGTATTTGCT (site GCGAAAACTAG) | 0.0308
TTTGCGTCATGGACCGGTTTTCCCGGTAATCCGTATTTGCT (site TTTGCGTCTAG) | 0.251
TATTTGACATGGACCGGTTTTCCCGGTAATCCGTATTTGCT (site TAGTTGACTAG) | 0.852
CGTTAGACATGGACCGGTTTTCCCGGTAATCCGTATTTGAG (site CCTTAGACTCT) | 0.0362
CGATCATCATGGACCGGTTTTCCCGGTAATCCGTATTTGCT (site AGATCATCTAA) | 0.00548
GCTTGTCCATGGACCGGTTTTCCCGGTAATCCGTATTTGAT (site GCTTGACCTAT) | 0.00264
GTCATATCATGGACCGGTTTTCCCGGTAATCCGTATTTGTG (site GTCATATCTCA) | 2.31
GGTCCAACATGGACCGGTTTTCCCGGTAATCCGTATTTGCA (site GGTCCAACTTT) | 0.0134
TATATGGCATGGACCGGTTTTCCCGGTAATCCGTATTTGTG (site TATCTGGCTCA) | 0.00271
GGATACACATGGACCGGTTTTCCCGGTAATCCGTATTTGCC (site GGATATACTGG) | 0
GGAGATTCATGGACCGGTTTTCCCGGTAATCCGTATTTGTT (site GTAGATTCTAA) | 0
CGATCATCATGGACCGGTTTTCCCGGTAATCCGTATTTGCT (site CGGTCTTCTAG) | 0.0105

###

List of recombinant barcode read abundance (log10) values.
# measurement-protocol: recombinant barcode read abundance after kanamycin selection (control-corrected) (log10(CPM+1)); higher = more efficient recombination; sequences stand for … in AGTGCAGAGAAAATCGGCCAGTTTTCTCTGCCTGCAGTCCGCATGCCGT…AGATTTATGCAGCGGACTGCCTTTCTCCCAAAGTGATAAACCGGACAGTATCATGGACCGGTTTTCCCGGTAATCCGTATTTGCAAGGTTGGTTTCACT; site = the 11-nt target
measurement-name: recombinant barcode read abundance (log10)

chain | reading
AATAGTGCTTGGGTTCTAACCTGTTGCCT (site AGTAGTGCTAG) | 0.176
GCACGCTCTTGGGTTCTAACCTGTTGCCT (site GCACGCTCTAG) | 1.55
ATGAAGCCTTGGGTTCTAACCTGTTGCCT (site CTGAAGCCTAG) | 0.053
AAACTCGCTTGGGTTCTAACCTGTTGCCT (site AAACTCGCTAG) | 1.8
CTCATAACTTGGGTTCTAACCTGTTGCCG (site CTCTAAACTCG) | 0.2
TCTGAGGCTTGGGTTCTAACCTGTTGCTG (site TCAGAGGCTCA) | 0.263
CAGCATCCTTGGGTTCTAACCTGTTGCAG (site CAGCATCCTCT) | 1.11
TTAGTTCCTTGGGTTCTAACCTGTTGCCT (site TTAGTTCCTAG) | 0.634
CTCGGATCTTGGGTTCTAACCTGTTGCTC (site CTCGGATCTAA) | 0
GTCGCCTCTTGGGTTCTAACCTGTTGCCT (site GTCGCCTCTAG) | 0.297
ACGACTCCTTGGGTTCTAACCTGTTGCCT (site ACGACTGCTAG) | 0.117
TCACAGACTTGGGTTCTAACCTGTTGCCG (site GTTAGCCCTAT) | 0.11
ACTAGGGCTTGGGTTCTAACCTGTTGCGG (site AATAGGGCTCC) | 0.729
TAGTGGTCTTGGGTTCTAACCTGTTGCAT (site TAGTGGTCTAT) | 2.04
GGTGGCCCTTGGGTTCTAACCTGTTGCCT (site GGTGGCCCTAG) | 1.08
AAGCTTGCTTGGGTTCTAACCTGTTGCCT (site AAGCTTGCTAG) | 1.1
TCTCGATCTTGGGTTCTAACCTGTTGCAT (site CCTCGATCTAT) | 0.0525
GTACGACCTTGGGTTCTAACCTGTTGCAC (site GTACGACCTGT) | 1.91
CGACTGCCTTGGGTTCTAACCTGTTGCGT (site CGAATGTCTAC) | 0.527
CATAGACCTTGGGTTCTAACCTGTTGCCT (site CATAGACCTAG) | 1.45
CCACTGTCTTGGGTTCTAACCTGTTGCCT (site CCACGGTCTAG) | 0.0729
